Tested on: Human immunodeficiency virus 1
Protocol Description: Inhibition of HIV1 KK infected PBMC
Assay type: functional, organism-based
Assay Setup: Human immunodeficiency virus 1, KK
Measurement Name: IC50

compound="CCCCOCCOc1ccc(-c2ccc3c(c2)/C=C(/C(=O)Nc2ccc([S@@+]([O-])Cc4cncn4CCC)cc2)CCCN3CC(C)C)cc1.CS(=O)(=O)O [CENICRIVIROC MESYLATE]" measurement_name=IC50 assay_result="0.14 nM"

The reported numbers originate from ChEMBL document CHEMBL1142191.
